Origin of values: PubChem BioAssay (NCI)

This section presents compounds with their documented growth values.
# System: NCI-H23 lung
# Procedure Details: NCI-60 one-dose screen, 48 h (100 = growth as untreated, 0 = no growth, -100 = all killed)
# Condition Context: 10 µM unless noted
This is part of a sample that, as a whole, favours compounds with a hit. Of some 83,000 tested, about 20% had one in any assay.
Field format: number, assumed %, no unit text.

Some compounds with known growth results, for comparison:
growth reported for this compound `COc1ccc(CN2c3ccccc3Sc3ccccc32)c(C(F)(F)F)c1` : 43.9

growth reported for this compound `CCN=C1C=CC(=C(c2ccc(N)cc2)c2ccc(N(CC)CC)c(C)c2)C=C1` : -14.9

New cases:
growth reported for this compound C=CCSSc1ncnc2c1ncn2C1OC(CO)C(O)C1O (stereo unspecified) : 39.7

growth reported for this compound `CC[C@]1(O)C[C@@H]2CN(CCc3c([nH]c4ccccc34)[C@@](C(=O)OC)(c3cc4c(cc3OC)N(C)[C@H]3[C@@](O)(C(N)=O)[C@H](O)[C@]5(CC)[C@@H]6C[C@@H]6CN6CC[C@]43[C@@H]65)C2)C1` : 32.7

growth reported for this compound `Cc1cc(N[C@@H]2CCC[C@H](Nc3ccnc4cc(Cl)ccc34)C2)nc(N2CCCCCC2)n1` : -30.3

growth reported for this compound `O=C(N/N=C/c1ccccc1O)c1ccccc1Nc1ccnc(C(F)(F)F)c1` : 30.2

growth reported for this compound `CN(C)S(=O)(=O)c1ccc(S(=O)(=O)Nc2cccc(Cl)c2N2CCCCC2)cc1` : 84.1

growth reported for this compound `Cc1ccc2c(c1)C(=O)/C(=C/c1cccc(OCC(=O)c3ccc(Cl)cc3)c1)CS2` : 79

growth reported for this compound `COc1ccc(/C=C(\C#N)C(=O)Nc2cccc(Nc3nc(SC)nc(-c4cccc([N+](=O)[O-])c4)c3C#N)c2)cc1OC` : 88.5

growth reported for this compound `Cc1nc(/N=C(\N)NC(=O)Nc2cccc([N+](=O)[O-])c2)sc1C` : 81.8

growth reported for this compound `O=C1NC(=S)N[C@H]1CC(=O)n1cnc2ccccc21` : 92.3
